- Experimental Target: SRPK1 (human) (UniProt Q96SB4)
- Sequence (Q96SB4 whole entry, looked up): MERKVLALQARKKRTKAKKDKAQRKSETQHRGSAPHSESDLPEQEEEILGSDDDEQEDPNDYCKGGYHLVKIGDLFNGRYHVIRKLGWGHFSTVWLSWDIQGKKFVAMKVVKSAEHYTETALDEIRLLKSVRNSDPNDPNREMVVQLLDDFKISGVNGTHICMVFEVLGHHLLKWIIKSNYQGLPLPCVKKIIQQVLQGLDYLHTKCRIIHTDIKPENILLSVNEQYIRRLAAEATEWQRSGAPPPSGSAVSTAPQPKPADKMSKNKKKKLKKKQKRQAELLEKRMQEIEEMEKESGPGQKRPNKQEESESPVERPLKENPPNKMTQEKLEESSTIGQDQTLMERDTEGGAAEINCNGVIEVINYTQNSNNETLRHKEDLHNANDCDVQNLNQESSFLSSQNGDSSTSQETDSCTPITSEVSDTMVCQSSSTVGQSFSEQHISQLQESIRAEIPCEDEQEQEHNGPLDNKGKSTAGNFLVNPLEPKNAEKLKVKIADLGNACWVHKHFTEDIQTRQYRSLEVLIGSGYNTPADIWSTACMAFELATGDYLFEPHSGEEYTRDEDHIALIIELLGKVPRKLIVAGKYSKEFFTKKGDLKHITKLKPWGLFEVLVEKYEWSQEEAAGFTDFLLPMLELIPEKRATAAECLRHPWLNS
- Procedure Summary: radiometric filter-binding kinase assay, Kinase HotSpot
- Condition Info: compound 0.5 µM; ATP 10 µM
Items are presented alongside their recorded residual activity.
Measure Name: residual activity (%)

{"Compound": "O=S(=O)(c1cccc2cnccc12)N1CCCNCC1", "Measured Value": 92.6}
{"Compound": "Oc1cccc(-c2nc(N3CCOCC3)c3oc4ncccc4c3n2)c1", "Measured Value": 105}
{"Compound": "CC(C)N(CCC(=O)c1ccc2ccccc2c1)Cc1ccccc1", "Measured Value": 103}
{"Compound": "CCN(CC)C(=O)c1ccc(Nc2nc(OCC3CCCCC3)c3nc[nH]c3n2)cc1", "Measured Value": 91.7}
{"Compound": "CCCC(=O)Oc1ccc2[nH]c(C(=O)c3cc4ccccc4[nH]3)cc2c1", "Measured Value": 105}
{"Compound": "O=C1NC(=O)/C(=C/c2ccc3c(c2)OC(F)(F)O3)S1", "Measured Value": 105}
{"Compound": "CC[n+]1c(/C=C/N(C)c2ccccc2)n(-c2ccccc2)c2ccc(-c3nc4ccccc4s3)cc21", "Measured Value": 105}
{"Compound": "CCN(CC)CCNC(=O)c1c(C)[nH]c(/C=C2\\C(=O)Nc3ccc(Cl)cc32)c1C", "Measured Value": 95.9}
{"Compound": "c1ccc(-c2n[nH]cc2-c2ccnc3ccccc23)nc1", "Measured Value": 98.4}
{"Compound": "CC#CC(=O)Nc1cc2c(Nc3ccc(F)c(Cl)c3)ncnc2cn1", "Measured Value": 94.8}
{"Compound": "O=C1NC(=O)C(c2cn(CCCn3ccnc3)c3ccccc23)=C1Nc1ccccc1", "Measured Value": 99.5}
{"Compound": "Nc1ncnc2[nH]nc(Nc3ccc(F)cc3)c12", "Measured Value": 104}
{"Compound": "N#CC(C#N)=C(N)/C(C#N)=C/c1ccc(O)cc1", "Measured Value": 100}
{"Compound": "N#C/C(=C(/N)Sc1ccc(N)cc1)c1ccccc1C(F)(F)F", "Measured Value": 96.5}
{"Compound": "CNc1cc2c(Nc3cccc(Br)c3)ncnc2cn1", "Measured Value": 90.7}
{"Compound": "O=C(Nc1cccc(Nc2nccc(Nc3cccc(C(F)(F)F)c3)n2)c1)C1CC1", "Measured Value": 104}
{"Compound": "COc1ccc(COc2ccc(Cc3cnc(N)nc3N)cc2OC)cc1", "Measured Value": 90.4}
{"Compound": "CCN(CC)CCNC(=O)c1c(C)[nH]c(/C=C2\\C(=O)Nc3ccc(F)cc32)c1C", "Measured Value": 97}
{"Compound": "c1ccc(-c2n[nH]c3c2oc2ccccc23)cc1", "Measured Value": 113}
{"Compound": "CO[C@H]1CC2CC[C@@H](C)[C@@](O)(O2)C(=O)C(=O)N2CCCC[C@H]2C(=O)OC([C@H](C)C[C@@H]2CC[C@@H](O)[C@H](OC)C2)CC(=O)[C@H](C)/C=C(\\C)[C@@H](O)[C@@H](OC)C(=O)[C@H](C)C[C@H](C)/C=C/C=C/C=C/1C (some centres not stated)", "Measured Value": 108}
{"Compound": "COc1ccc2c(c[n+](C)c3c4cc5c(cc4ccc23)OCO5)c1OC", "Measured Value": 95.3}
{"Compound": "Nc1ccc2ncnc(NCCc3ccc(Oc4ccccc4)cc3)c2c1", "Measured Value": 99.8}
{"Compound": "O=c1cc(N2CCOCC2)oc2c1ccc1ccccc12", "Measured Value": 90.9}
{"Compound": "O=C1NC(=O)c2c1c1c3ccccc3n3c1c1c2c2ccccc2n1C1CCC3O1", "Measured Value": 88.1}
{"Compound": "Nc1cccc(-c2cc3c(Oc4cccc(O)c4)ncnc3[nH]2)c1", "Measured Value": 107}
{"Compound": "Cc1ccc(Nc2nccc(N(C)c3ccc4c(C)n(C)nc4c3)n2)cc1S(N)(=O)=O", "Measured Value": 100}
{"Compound": "Cc1ccc(NC2=CC(=O)c3sc(C)nc3C2=O)cc1", "Measured Value": 92.6}
{"Compound": "CCOC(=O)c1c(C)[nH]c(/C=C2\\C(=O)Nc3ccccc32)c1C", "Measured Value": 95.4}
{"Compound": "CC(=O)c1ccc(N2CCOCC2)cc1O", "Measured Value": 90.7}
{"Compound": "CNC(=O)c1cc(Oc2ccc(NC(=O)Nc3ccc(Cl)c(C(F)(F)F)c3)cc2)ccn1", "Measured Value": 98.6}
{"Compound": "COc1cc2ncnc(Nc3cccc(Cl)c3)c2cc1OC", "Measured Value": 102}
{"Compound": "O=C1Nc2ccc(Cl)cc2/C1=C/c1cc(Cl)c(O)c(Cl)c1", "Measured Value": 106}

* * *

- Experimental Target: GSK3B (human) (UniProt P49841)
- Sequence (P49841 whole entry, looked up): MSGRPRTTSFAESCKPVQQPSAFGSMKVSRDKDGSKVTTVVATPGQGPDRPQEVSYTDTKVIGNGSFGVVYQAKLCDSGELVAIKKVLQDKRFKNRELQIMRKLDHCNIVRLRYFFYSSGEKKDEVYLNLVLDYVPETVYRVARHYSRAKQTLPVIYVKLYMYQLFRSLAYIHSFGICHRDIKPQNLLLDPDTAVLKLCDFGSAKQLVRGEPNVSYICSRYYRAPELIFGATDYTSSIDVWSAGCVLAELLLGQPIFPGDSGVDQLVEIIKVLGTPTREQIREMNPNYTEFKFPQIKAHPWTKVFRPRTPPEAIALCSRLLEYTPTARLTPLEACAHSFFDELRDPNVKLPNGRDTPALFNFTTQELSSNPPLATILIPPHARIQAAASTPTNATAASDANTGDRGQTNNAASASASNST
- Procedure Summary: radiometric filter-binding kinase assay, Kinase HotSpot
- Condition Info: compound 0.5 µM; ATP 10 µM

{"Compound": "O=C1NC(=O)/C(=C/c2ccc3c(c2)OC(F)(F)O3)S1", "residual activity (%)": 92.3}
{"Compound": "O=C1NC(=O)C(c2cn(CCCn3ccnc3)c3ccccc23)=C1Nc1ccccc1", "residual activity (%)": 14.2}
{"Compound": "CO[C@H]1CC2CC[C@@H](C)[C@@](O)(O2)C(=O)C(=O)N2CCCC[C@H]2C(=O)OC([C@H](C)C[C@@H]2CC[C@@H](O)[C@H](OC)C2)CC(=O)[C@H](C)/C=C(\\C)[C@@H](O)[C@@H](OC)C(=O)[C@H](C)C[C@H](C)/C=C/C=C/C=C/1C (stereo partly specified)", "residual activity (%)": 109}
{"Compound": "CC(C)N(CCC(=O)c1ccc2ccccc2c1)Cc1ccccc1", "residual activity (%)": 94.9}
{"Compound": "CC#CC(=O)Nc1cc2c(Nc3ccc(F)c(Cl)c3)ncnc2cn1", "residual activity (%)": 93}
{"Compound": "CCN(CC)CCNC(=O)c1c(C)[nH]c(/C=C2\\C(=O)Nc3ccc(Cl)cc32)c1C", "residual activity (%)": 93.1}
{"Compound": "O=C1NC(=O)c2c1c1c3ccccc3n3c1c1c2c2ccccc2n1C1CCC3O1", "residual activity (%)": 4.6}
{"Compound": "O=C1Nc2ccc(Cl)cc2/C1=C/c1cc(Cl)c(O)c(Cl)c1", "residual activity (%)": 80.8}
{"Compound": "Cc1ccc(NC2=CC(=O)c3sc(C)nc3C2=O)cc1", "residual activity (%)": 82}
{"Compound": "CCC(=O)Nc1ccc2ncnc(Nc3cccc(Br)c3)c2c1", "residual activity (%)": 91.2}
{"Compound": "CCN(CC)C(=O)c1ccc(Nc2nc(OCC3CCCCC3)c3nc[nH]c3n2)cc1", "residual activity (%)": 85}

* * *

- Experimental Target: WEE1 (human) (UniProt P30291)
- Sequence (P30291 whole entry, looked up): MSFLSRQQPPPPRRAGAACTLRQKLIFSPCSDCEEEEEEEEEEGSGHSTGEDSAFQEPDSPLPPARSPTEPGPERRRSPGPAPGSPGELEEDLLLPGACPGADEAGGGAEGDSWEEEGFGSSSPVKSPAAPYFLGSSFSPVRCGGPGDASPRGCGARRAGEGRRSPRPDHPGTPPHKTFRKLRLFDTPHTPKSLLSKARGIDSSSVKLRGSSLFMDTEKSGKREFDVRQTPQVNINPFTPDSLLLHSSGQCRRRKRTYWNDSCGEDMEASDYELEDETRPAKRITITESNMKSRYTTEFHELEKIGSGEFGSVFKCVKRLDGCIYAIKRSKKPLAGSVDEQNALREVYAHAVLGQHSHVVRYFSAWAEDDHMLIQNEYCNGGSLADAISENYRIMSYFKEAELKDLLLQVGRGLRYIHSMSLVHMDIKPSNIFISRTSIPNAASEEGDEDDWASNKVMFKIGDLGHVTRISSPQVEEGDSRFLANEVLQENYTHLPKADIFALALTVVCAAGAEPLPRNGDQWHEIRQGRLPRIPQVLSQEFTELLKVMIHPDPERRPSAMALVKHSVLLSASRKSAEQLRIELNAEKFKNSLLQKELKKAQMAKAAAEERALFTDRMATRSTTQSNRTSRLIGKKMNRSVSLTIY
- Procedure Summary: radiometric filter-binding kinase assay, Kinase HotSpot
- Condition Info: compound 0.5 µM; ATP 10 µM
Items are presented alongside their recorded residual activity.
Measure Name: residual activity (%)

{"Chemical String": "CC(C)N(CCC(=O)c1ccc2ccccc2c1)Cc1ccccc1", "Measure Name": "residual activity", "Measured Value": 92.1}
{"Chemical String": "c1ccc(-c2n[nH]cc2-c2ccnc3ccccc23)nc1", "Measure Name": "residual activity", "Measured Value": 91.1}
{"Chemical String": "O=C1NC(=O)/C(=C/c2ccc3c(c2)OC(F)(F)O3)S1", "Measure Name": "residual activity", "Measured Value": 88.8}
{"Chemical String": "COc1cc2ncnc(Nc3cccc(Cl)c3)c2cc1OC", "Measure Name": "residual activity", "Measured Value": 92.4}

* * *

- Experimental Target: UniProtKB Q8WTQ7
- Sequence (Q8WTQ7 whole entry, looked up): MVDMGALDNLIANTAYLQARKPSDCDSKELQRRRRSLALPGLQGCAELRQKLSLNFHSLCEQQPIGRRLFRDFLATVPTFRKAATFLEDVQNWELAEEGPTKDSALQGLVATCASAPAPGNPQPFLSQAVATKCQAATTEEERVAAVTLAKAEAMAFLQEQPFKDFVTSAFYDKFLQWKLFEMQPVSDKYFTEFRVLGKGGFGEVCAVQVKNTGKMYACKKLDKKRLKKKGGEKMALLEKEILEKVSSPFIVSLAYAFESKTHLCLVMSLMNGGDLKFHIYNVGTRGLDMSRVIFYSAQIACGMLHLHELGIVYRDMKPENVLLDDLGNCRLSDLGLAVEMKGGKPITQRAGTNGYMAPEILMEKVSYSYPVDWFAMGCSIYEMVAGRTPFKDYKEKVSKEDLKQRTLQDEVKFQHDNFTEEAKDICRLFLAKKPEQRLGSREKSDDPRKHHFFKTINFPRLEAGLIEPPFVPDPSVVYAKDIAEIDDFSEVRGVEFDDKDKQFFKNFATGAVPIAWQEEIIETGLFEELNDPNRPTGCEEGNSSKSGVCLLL
- Procedure Summary: radiometric filter-binding kinase assay, Kinase HotSpot
- Condition Info: compound 0.5 µM; ATP 10 µM
Measure Name: residual activity (%)

{"Chemical String": "CC(=O)c1ccc(N2CCOCC2)cc1O", "Measure Name": "residual activity", "Unit Of Measurement": "%", "Measured Value": 100}
{"Chemical String": "COc1ccc2c(c[n+](C)c3c4cc5c(cc4ccc23)OCO5)c1OC", "Measure Name": "residual activity", "Unit Of Measurement": "%", "Measured Value": 101}
{"Chemical String": "Cc1ccc(NC2=CC(=O)c3sc(C)nc3C2=O)cc1", "Measure Name": "residual activity", "Unit Of Measurement": "%", "Measured Value": 101}
{"Chemical String": "c1ccc(-c2n[nH]c3c2oc2ccccc23)cc1", "Measure Name": "residual activity", "Unit Of Measurement": "%", "Measured Value": 102}
{"Chemical String": "O=c1cc(N2CCOCC2)oc2c1ccc1ccccc12", "Measure Name": "residual activity", "Unit Of Measurement": "%", "Measured Value": 107}
{"Chemical String": "Cc1ccc(Nc2nccc(N(C)c3ccc4c(C)n(C)nc4c3)n2)cc1S(N)(=O)=O", "Measure Name": "residual activity", "Unit Of Measurement": "%", "Measured Value": 96.5}
{"Chemical String": "N#CC(C#N)=C(N)/C(C#N)=C/c1ccc(O)cc1", "Measure Name": "residual activity", "Unit Of Measurement": "%", "Measured Value": 104}
{"Chemical String": "Oc1cccc(-c2nc(N3CCOCC3)c3oc4ncccc4c3n2)c1", "Measure Name": "residual activity", "Unit Of Measurement": "%", "Measured Value": 100}
{"Chemical String": "CNc1cc2c(Nc3cccc(Br)c3)ncnc2cn1", "Measure Name": "residual activity", "Unit Of Measurement": "%", "Measured Value": 83.8}
{"Chemical String": "O=C1NC(=O)c2c1c1c3ccccc3n3c1c1c2c2ccccc2n1C1CCC3O1", "Measure Name": "residual activity", "Unit Of Measurement": "%", "Measured Value": 53.4}
{"Chemical String": "CCOC(=O)c1c(C)[nH]c(/C=C2\\C(=O)Nc3ccccc32)c1C", "Measure Name": "residual activity", "Unit Of Measurement": "%", "Measured Value": 86.3}
{"Chemical String": "CNC(=O)c1cc(Oc2ccc(NC(=O)Nc3ccc(Cl)c(C(F)(F)F)c3)cc2)ccn1", "Measure Name": "residual activity", "Unit Of Measurement": "%", "Measured Value": 97.3}
{"Chemical String": "CCN(CC)C(=O)c1ccc(Nc2nc(OCC3CCCCC3)c3nc[nH]c3n2)cc1", "Measure Name": "residual activity", "Unit Of Measurement": "%", "Measured Value": 103}
{"Chemical String": "N#C/C(=C(/N)Sc1ccc(N)cc1)c1ccccc1C(F)(F)F", "Measure Name": "residual activity", "Unit Of Measurement": "%", "Measured Value": 113}
{"Chemical String": "O=S(=O)(c1cccc2cnccc12)N1CCCNCC1", "Measure Name": "residual activity", "Unit Of Measurement": "%", "Measured Value": 114}
{"Chemical String": "Nc1ncnc2[nH]nc(Nc3ccc(F)cc3)c12", "Measure Name": "residual activity", "Unit Of Measurement": "%", "Measured Value": 105}
{"Chemical String": "CCCC(=O)Oc1ccc2[nH]c(C(=O)c3cc4ccccc4[nH]3)cc2c1", "Measure Name": "residual activity", "Unit Of Measurement": "%", "Measured Value": 105}
{"Chemical String": "COc1ccc(COc2ccc(Cc3cnc(N)nc3N)cc2OC)cc1", "Measure Name": "residual activity", "Unit Of Measurement": "%", "Measured Value": 104}
{"Chemical String": "O=C1Nc2ccc(Cl)cc2/C1=C/c1cc(Cl)c(O)c(Cl)c1", "Measure Name": "residual activity", "Unit Of Measurement": "%", "Measured Value": 97.3}
{"Chemical String": "CCN(CC)CCNC(=O)c1c(C)[nH]c(/C=C2\\C(=O)Nc3ccc(F)cc32)c1C", "Measure Name": "residual activity", "Unit Of Measurement": "%", "Measured Value": 71.3}
{"Chemical String": "CC(C)N(CCC(=O)c1ccc2ccccc2c1)Cc1ccccc1", "Measure Name": "residual activity", "Unit Of Measurement": "%", "Measured Value": 121}
{"Chemical String": "c1ccc(-c2n[nH]cc2-c2ccnc3ccccc23)nc1", "Measure Name": "residual activity", "Unit Of Measurement": "%", "Measured Value": 102}
{"Chemical String": "COc1cc2ncnc(Nc3cccc(Cl)c3)c2cc1OC", "Measure Name": "residual activity", "Unit Of Measurement": "%", "Measured Value": 85.4}
{"Chemical String": "O=C(Nc1cccc(Nc2nccc(Nc3cccc(C(F)(F)F)c3)n2)c1)C1CC1", "Measure Name": "residual activity", "Unit Of Measurement": "%", "Measured Value": 101}
{"Chemical String": "CC[n+]1c(/C=C/N(C)c2ccccc2)n(-c2ccccc2)c2ccc(-c3nc4ccccc4s3)cc21", "Measure Name": "residual activity", "Unit Of Measurement": "%", "Measured Value": 100}
{"Chemical String": "Nc1cccc(-c2cc3c(Oc4cccc(O)c4)ncnc3[nH]2)c1", "Measure Name": "residual activity", "Unit Of Measurement": "%", "Measured Value": 102}
